test system: Sigma non-opioid intracellular receptor 1 (Cavia porcellus)
test details: Tested in vitro for the concentration required to inhibit specific [3H]DTG radioligand binding to sigma receptor on guinea pig brain membrane
pIC50: −log10 of the molar value.
measured endpoint: pIC50

Completed entries (count: 5):
Bench note: what pIC50 did NC(=Nc1cccc2ccccc12)N1CCC(c2ccccc2)CC1 show?
6.46

Bench note: what pIC50 did CCc1cccc(N(CC)C(N)=Nc2cccc3ccccc23)c1 show?
5.66

Bench note: what pIC50 did NC(=Nc1cccc2ccccc12)N1CCCCCC1 show?
5.85

Bench note: what pIC50 did CN(C(N)=Nc1cccc2ccccc12)c1ccccc1 show?
5.54

Bench note: what pIC50 did NC(=Nc1cccc2ccccc12)Nc1ccccc1I show?
7.40

P = CN(C(N)=Nc1cccc2ccccc12)c1cccc(N=[N+]=[N-])c1
Q = CCc1cccc(NC(N)=Nc2cccc3ccccc23)c1
R = NC(=Nc1cccc2c1CCC2)Nc1cccc2c1CCC2
S = CCN(C(N)=Nc1cccc2ccccc12)c1cccc2ccccc12
T = CN(C(=N)N(c1ccccc1)c1cccc2ccccc12)c1cccc2ccccc12
Rank descending by pIC50. Enter labels, ranked according to the request.
R, Q, P, S, T
(R: 7.54, Q: 7.27, P: 5.52, S: 5.21, T: 4.96)

1 = CN(C(N)=Nc1cccc2ccccc12)c1cccc(N)c1
2 = CN(C(N)=Nc1cccc2ccccc12)c1cccc2ccccc12
3 = COc1cccc(N=C(N)Nc2cccc(OC)c2)c1
4 = CCc1cccc(N(C)C(=N)N(C)c2cccc3ccccc23)c1
Rank descending by pIC50. Enter labels, ranked according to the request.
3, 4, 1, 2
(3: 6.45, 4: 5.92, 1: 5.57, 2: 5.32)

A = NC(=Nc1ccc2ccccc2c1)Nc1ccc2ccccc2c1
B = CN(C(=N)N(C)c1cccc2ccccc12)c1cccc2ccccc12
C = CN(/C(N)=N/c1cccc2ccccc12)c1cccc([N+](=O)[O-])c1
D = NC(=Nc1cccc2ccccc12)N1CCCCC1
E = CCc1cccc(N=C(N)Nc2cccc(CC)c2)c1
Provide the items ranked by increasing pIC50. Enter labels, ranked according to the request.
B, C, D, A, E
(B: 4.97, C: 5.20, D: 5.97, A: 7.04, E: 8.10)

a = CN(C(N)=Nc1cccc(N)c1)c1cccc2ccccc12
b = CC(C)c1cccc(N=C(N)Nc2cccc(C(C)C)c2)c1
c = CCc1cccc(N=C(N)N2CCC(c3ccccc3)CC2)c1
d = NC(=Nc1cccc2ccccc12)N(c1ccccc1)c1cccc2ccccc12
e = NC(=Nc1ccc(Br)cc1)Nc1ccc(Br)cc1
Rank descending by pIC50. Enter labels, ranked according to the request.
e, c, b, d, a
(e: 7.48, c: 7.22, b: 7.02, d: 5.10, a: 4.89)

---

test system: Sigma non-opioid intracellular receptor 1 (Cavia porcellus)
test details: Tested in vitro for the concentration required to inhibit specific [3H]DTG radioligand binding to sigma receptor on guinea pig brain membrane
measured endpoint: IC50 (nM)

1 = Cc1cccc(NC(N)=Nc2cccc3ccccc23)c1
2 = N=C(N1CCc2ccccc21)N1CCc2ccccc21
3 = C/[N+](=C(/[NH-])Nc1cccc([N+](=O)[O-])c1)c1cccc2ccccc12
4 = NC(=Nc1cccc2ccccc12)Nc1cccc2ccccc12
5 = Cc1cccc(N=C(N)N(C)c2cccc(C)c2)c1
Consider the molecules listed above. Rank them by IC50 in ascending numerical order. Enter labels, ranked according to the request.
1, 4, 5, 3, 2
(1: 75 nM, 4: 165 nM, 5: 247 nM, 3: 2640 nM, 2: 7180 nM)

I = CC(C)c1ccccc1N=C(N)Nc1cccc2ccccc12
II = CC(C)c1ccc(N=C(N)Nc2ccc(C(C)C)cc2)cc1
Hi, I'm comparing I with II and wondering which one has the bigger number for IC50. Any idea? Use the label to indicate which entry you chose.
II
